molecular target: ABL (Homo sapiens)
Sequence (P00519 whole entry): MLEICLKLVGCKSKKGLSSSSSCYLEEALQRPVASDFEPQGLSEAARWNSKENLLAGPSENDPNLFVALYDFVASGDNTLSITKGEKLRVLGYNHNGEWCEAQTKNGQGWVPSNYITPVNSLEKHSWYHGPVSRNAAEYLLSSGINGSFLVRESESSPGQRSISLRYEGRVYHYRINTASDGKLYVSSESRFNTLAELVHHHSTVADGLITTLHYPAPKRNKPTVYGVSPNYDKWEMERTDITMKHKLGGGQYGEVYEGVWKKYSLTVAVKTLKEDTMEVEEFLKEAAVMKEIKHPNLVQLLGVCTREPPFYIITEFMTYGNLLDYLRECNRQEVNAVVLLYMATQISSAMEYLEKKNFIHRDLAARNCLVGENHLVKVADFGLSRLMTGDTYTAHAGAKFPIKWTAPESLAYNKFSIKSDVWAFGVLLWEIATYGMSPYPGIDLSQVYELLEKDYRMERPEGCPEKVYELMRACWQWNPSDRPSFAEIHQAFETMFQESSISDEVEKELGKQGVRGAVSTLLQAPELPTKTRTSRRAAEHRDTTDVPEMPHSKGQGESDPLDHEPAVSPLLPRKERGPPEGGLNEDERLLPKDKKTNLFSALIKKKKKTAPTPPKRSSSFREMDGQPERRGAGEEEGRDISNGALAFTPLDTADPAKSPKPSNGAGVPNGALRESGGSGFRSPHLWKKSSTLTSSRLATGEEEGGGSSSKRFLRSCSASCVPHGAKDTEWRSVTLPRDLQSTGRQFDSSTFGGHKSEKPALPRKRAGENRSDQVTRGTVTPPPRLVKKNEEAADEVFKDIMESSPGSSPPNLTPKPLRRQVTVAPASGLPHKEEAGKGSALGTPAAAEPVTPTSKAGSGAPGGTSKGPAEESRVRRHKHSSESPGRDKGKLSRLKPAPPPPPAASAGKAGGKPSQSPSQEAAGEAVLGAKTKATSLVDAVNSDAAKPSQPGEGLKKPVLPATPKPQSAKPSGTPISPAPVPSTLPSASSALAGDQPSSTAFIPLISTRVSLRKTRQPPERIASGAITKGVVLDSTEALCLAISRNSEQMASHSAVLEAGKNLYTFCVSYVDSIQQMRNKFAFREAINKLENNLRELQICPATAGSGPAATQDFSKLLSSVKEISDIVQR
OBSERVED PROPERTY: pIC50
For clarity, pIC50 is expressed as the negative log10 of concentration in mol/L.

input: Fill in pIC50 for CC(C)C(C)CNCc1ccc2c(c1)[nH]/c(=N\C(=O)c1ccc(C3=CN=NC3)s1)n2CC(C)(C)O (stereo not shown) [BI 10N] tested with ABL (Homo sapiens).
output: 7.63

###

target: ITK (Homo sapiens)
Sequence (Q08881 whole entry): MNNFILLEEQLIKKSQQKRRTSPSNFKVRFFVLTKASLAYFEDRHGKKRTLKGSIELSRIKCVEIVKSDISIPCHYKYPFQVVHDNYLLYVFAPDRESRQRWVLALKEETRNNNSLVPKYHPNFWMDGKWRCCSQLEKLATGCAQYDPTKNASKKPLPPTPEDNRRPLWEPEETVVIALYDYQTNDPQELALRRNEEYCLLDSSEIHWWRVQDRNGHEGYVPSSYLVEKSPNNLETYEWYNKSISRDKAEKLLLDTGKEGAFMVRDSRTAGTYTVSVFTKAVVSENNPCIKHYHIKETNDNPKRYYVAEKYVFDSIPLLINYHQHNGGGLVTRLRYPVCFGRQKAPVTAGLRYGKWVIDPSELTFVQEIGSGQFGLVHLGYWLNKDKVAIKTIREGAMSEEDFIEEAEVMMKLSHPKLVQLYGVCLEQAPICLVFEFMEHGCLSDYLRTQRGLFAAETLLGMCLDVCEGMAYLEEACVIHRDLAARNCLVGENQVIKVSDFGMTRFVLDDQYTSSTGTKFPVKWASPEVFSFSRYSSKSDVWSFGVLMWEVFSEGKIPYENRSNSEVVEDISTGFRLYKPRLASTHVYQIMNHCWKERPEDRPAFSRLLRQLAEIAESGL
OBSERVED PROPERTY: pKi
For clarity, pKi is expressed as the negative log10 of concentration in mol/L.

input: Fill in pKi for CC(C)C(C)CNCc1ccc2c(c1)[nH]/c(=N\C(=O)c1ccc(C3=CN=NC3)s1)n2CC(C)(C)O (stereo not shown) [BI 10N] tested with ITK (Homo sapiens).
output: 11.07

###

target: ZAP70 (Homo sapiens)
Sequence (P43403 whole entry): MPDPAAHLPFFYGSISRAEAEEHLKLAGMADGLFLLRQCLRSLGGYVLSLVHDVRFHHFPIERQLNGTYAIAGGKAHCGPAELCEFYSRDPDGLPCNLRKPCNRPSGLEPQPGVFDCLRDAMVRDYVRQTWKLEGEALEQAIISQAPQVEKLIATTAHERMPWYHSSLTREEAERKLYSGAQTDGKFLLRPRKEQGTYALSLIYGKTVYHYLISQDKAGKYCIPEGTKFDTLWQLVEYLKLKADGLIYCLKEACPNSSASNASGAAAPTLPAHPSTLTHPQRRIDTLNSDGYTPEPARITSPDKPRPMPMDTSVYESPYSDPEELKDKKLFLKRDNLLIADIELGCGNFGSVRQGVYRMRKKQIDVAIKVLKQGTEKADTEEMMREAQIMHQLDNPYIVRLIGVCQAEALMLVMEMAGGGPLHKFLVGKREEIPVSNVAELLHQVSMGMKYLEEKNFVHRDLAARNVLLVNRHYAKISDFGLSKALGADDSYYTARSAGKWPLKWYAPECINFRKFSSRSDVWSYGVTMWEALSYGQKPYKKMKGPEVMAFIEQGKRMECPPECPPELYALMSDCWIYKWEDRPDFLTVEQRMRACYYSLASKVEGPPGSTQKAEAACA
OBSERVED PROPERTY: IC50 (µM)
Give the number; µM is assumed, so skip it.

input: Fill in IC50 for CC(C)C(C)CNCc1ccc2c(c1)[nH]/c(=N\C(=O)c1ccc(C3=CN=NC3)s1)n2CC(C)(C)O (stereo not shown) [BI 10N] tested with ZAP70 (Homo sapiens).
output: 7.09

###

target: LYNb (Homo sapiens, UniProt P07948)
OBSERVED PROPERTY: IC50
Reply with the number, then its unit.

input: Fill in IC50 for CC(C)C(C)CNCc1ccc2c(c1)[nH]/c(=N\C(=O)c1ccc(C3=CN=NC3)s1)n2CC(C)(C)O (stereo not shown) [BI 10N] tested with LYNb (Homo sapiens, UniProt P07948).
output: 43 nM

###

Biological target: TRKA (Homo sapiens)
Construct: purchased Carna Biosciences
Test: cell-free kinase assay
Assay type: biochemical
Settings: TRKA; ATP at approximately the Km for ATP; more potent than can be measured
Source text: We investigated the potency and selectivity of BI 10N against 56 kinases using a cell-free assay (Table 8A). […] The selectivity of this inhibitor was investigated by testing the potency of the inhibitor at two concentrations with 53 kinases by Carna Biosciences (MA) (Table 2).
pIC50: −log10 of the molar value.
OBSERVED PROPERTY: pIC50

input: Query pIC50 for CC(C)C(C)CNCc1ccc2c(c1)[nH]/c(=N\C(=O)c1ccc(C3=CN=NC3)s1)n2CC(C)(C)O (stereo not shown) [BI 10N]
output: > 9.30

###

target: PDGFRα (Homo sapiens)
Sequence (P16234 24-1089): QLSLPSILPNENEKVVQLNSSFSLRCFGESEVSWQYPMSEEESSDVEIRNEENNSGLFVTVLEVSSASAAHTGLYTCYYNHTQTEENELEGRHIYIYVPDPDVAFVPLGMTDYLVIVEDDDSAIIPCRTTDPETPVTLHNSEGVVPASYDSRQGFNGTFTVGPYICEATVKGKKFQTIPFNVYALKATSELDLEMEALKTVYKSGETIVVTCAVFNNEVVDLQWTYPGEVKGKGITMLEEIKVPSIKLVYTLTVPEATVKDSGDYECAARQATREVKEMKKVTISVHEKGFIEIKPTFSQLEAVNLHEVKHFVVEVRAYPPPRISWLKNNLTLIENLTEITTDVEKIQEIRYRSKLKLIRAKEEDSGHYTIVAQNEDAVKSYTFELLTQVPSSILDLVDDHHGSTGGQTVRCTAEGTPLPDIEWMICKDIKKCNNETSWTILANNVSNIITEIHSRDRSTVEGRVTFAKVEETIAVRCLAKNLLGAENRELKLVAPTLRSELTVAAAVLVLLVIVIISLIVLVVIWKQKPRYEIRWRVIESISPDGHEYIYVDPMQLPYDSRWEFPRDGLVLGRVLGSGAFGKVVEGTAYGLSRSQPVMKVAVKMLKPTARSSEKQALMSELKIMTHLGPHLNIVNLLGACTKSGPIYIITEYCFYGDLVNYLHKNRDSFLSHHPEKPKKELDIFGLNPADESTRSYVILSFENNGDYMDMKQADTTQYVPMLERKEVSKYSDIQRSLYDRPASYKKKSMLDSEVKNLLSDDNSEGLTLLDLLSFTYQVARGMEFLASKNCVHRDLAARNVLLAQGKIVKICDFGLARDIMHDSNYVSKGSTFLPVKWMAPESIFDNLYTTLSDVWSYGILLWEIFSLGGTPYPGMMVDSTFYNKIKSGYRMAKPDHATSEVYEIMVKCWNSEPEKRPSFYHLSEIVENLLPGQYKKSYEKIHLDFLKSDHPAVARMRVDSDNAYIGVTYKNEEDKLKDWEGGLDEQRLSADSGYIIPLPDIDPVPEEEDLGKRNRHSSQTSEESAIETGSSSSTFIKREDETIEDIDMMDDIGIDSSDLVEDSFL
OBSERVED PROPERTY: pIC50
For clarity, pIC50 is expressed as the negative log10 of concentration in mol/L.

input: Query pIC50 for CC(C)C(C)CNCc1ccc2c(c1)[nH]/c(=N\C(=O)c1ccc(C3=CN=NC3)s1)n2CC(C)(C)O (stereo not shown) [BI 10N]
output: 8.00

###

biological target: FGFR1 (Homo sapiens, UniProt P11362)
OBSERVED PROPERTY: pIC50
For clarity, pIC50 is expressed as the negative log10 of concentration in mol/L.

input: Fill in pIC50 for CC(C)C(C)CNCc1ccc2c(c1)[nH]/c(=N\C(=O)c1ccc(C3=CN=NC3)s1)n2CC(C)(C)O (stereo not shown) [BI 10N] tested with FGFR1 (Homo sapiens, UniProt P11362).
output: 7.22

###

target: LCK (Homo sapiens)
OBSERVED PROPERTY: IC50 (nM)
Give the number; nM is assumed, so skip it.

input: Query IC50 for CC(C)C(C)CNCc1ccc2c(c1)[nH]/c(=N\C(=O)c1ccc(C3=CN=NC3)s1)n2CC(C)(C)O (stereo not shown) [BI 10N]
output: 10.6

###

target: IGF1R (Homo sapiens, UniProt P08069)
Sequence (P08069 31-1367): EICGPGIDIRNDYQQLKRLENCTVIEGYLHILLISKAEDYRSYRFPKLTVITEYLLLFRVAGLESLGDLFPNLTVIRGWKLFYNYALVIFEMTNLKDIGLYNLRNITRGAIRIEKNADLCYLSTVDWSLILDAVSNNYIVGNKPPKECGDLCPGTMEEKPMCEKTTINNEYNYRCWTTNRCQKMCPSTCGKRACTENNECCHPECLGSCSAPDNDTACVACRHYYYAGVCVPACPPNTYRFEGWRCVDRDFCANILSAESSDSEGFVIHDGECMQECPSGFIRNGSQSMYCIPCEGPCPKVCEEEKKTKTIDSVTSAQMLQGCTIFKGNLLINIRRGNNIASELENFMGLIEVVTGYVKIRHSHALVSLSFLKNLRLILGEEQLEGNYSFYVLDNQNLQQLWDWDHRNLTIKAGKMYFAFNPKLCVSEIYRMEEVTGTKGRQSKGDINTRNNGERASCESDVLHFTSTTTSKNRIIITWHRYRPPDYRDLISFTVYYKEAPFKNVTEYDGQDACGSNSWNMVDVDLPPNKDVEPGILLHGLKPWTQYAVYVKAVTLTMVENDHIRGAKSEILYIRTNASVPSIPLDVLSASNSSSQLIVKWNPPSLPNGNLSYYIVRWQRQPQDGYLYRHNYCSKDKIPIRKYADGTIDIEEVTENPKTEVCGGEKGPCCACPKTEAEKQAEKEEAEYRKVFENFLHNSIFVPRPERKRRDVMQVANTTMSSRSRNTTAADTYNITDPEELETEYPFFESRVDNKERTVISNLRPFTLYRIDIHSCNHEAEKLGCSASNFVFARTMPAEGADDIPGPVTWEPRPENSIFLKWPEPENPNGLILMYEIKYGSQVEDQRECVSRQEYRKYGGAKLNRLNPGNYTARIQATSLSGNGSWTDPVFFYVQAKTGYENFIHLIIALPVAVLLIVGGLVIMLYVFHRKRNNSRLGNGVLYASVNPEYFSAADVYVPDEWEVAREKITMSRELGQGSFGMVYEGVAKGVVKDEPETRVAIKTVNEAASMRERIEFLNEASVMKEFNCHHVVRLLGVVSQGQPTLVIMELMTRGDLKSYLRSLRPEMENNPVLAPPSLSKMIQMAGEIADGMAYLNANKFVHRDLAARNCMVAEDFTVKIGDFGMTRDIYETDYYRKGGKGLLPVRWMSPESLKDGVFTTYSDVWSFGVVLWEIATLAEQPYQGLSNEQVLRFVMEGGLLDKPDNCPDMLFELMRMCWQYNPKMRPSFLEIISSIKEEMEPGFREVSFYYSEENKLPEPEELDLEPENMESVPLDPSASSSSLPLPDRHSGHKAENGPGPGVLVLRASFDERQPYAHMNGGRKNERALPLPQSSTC
OBSERVED PROPERTY: IC50 (nM)
Give the number; nM is assumed, so skip it.

input: Fill in IC50 for CC(C)C(C)CNCc1ccc2c(c1)[nH]/c(=N\C(=O)c1ccc(C3=CN=NC3)s1)n2CC(C)(C)O (stereo not shown) [BI 10N] tested with IGF1R (Homo sapiens, UniProt P08069).
output: 886

###

target: LYNa (Homo sapiens, UniProt P07948)
OBSERVED PROPERTY: IC50 (nM)
Give the number; nM is assumed, so skip it.

input: Fill in IC50 for CC(C)C(C)CNCc1ccc2c(c1)[nH]/c(=N\C(=O)c1ccc(C3=CN=NC3)s1)n2CC(C)(C)O (stereo not shown) [BI 10N] tested with LYNa (Homo sapiens, UniProt P07948).
output: 36.6
